For each entry below, report its inhibition of SARS-CoV-2 cytopathic effect value.
Test system: Vero E6 infected with SARS-CoV-2
Assay: inhibition of SARS-CoV-2 cytopathic effect; higher = more antiviral protection, active = above 15
Conditions: 100 nM; 48 h

Kindly give each listed record's inhibition of SARS-CoV-2 cytopathic effect.
1. Cc1ccc(C(=O)Nc2ccc(S(=O)(=O)O)c3cc(S(=O)(=O)O)cc(S(=O)(=O)O)c23)cc1NC(=O)c1cccc(NC(=O)Nc2cccc(C(=O)Nc3cc(C(=O)Nc4ccc(S(=O)(=O)O)c5cc(S(=O)(=O)O)cc(S(=O)(=O)O)c45)ccc3C)c2)c1
2. CCC(=O)c1cc(-c2ccc(Cl)cc2)n(-c2ccc(S(N)(=O)=O)cc2)c1C
3. O=C1C2CCN(CC2)C1(CO)CO
4. CCOC(=O)c1c(O)nc2cccc3c2c1-c1ccccc1C3=O
5. C[C@@H]1CCN(C(=O)CC#N)C[C@@H]1N(C)c1ncnc2[nH]ccc12
6. CC(C)OC(=O)OCOP(=O)(CO[C@H](C)Cn1cnc2c(N)ncnc21)OCOC(=O)OC(C)C

## Result
1. 0.66% (inactive)
2. 0.71% (inactive)
3. 3.09% (inactive)
4. 5.31% (inactive)
5. -0.47% (inactive)
6. 3.17% (inactive)

Kindly give each listed record's inhibition of SARS-CoV-2 cytopathic effect.
1. CCN(CC)CCOc1ccc(C(O)(Cc2ccc(Cl)cc2)c2ccc(C)cc2)cc1 (configuration not stated)
2. O=C(Nc1ccc(F)cc1)N1CCc2ccccc2[C@@H]1c1ccc(C(F)(F)F)cc1

## Result
1: -1.43% (inactive); 2: -0.59% (inactive)

Kindly give each listed record's inhibition of SARS-CoV-2 cytopathic effect.
1. NC(=O)C1=CN([C@@H]2O[C@H](COP(=O)(O)OP(=O)(O)OC[C@H]3O[C@@H](n4cnc5c(N)ncnc54)[C@H](OP(=O)(O)O)[C@@H]3O)[C@@H](O)[C@H]2O)C=CC1
2. Cc1ccc(O)c([C@H](CCN(C(C)C)C(C)C)c2ccccc2)c1

## Result
1. 2.16% (inactive)
2. 1.96% (inactive)

Kindly give each listed record's inhibition of SARS-CoV-2 cytopathic effect.
1. CCC[C@H]1C(=O)N2C(N(C)C)=Nc3ccc(C)cc3N2C1=O
2. O=C(/C=C/c1c(C(=O)O)[nH]c2cc(Cl)cc(Cl)c12)Nc1ccccc1
3. Cc1ccccc1CN1C(=O)C2=C(CCN(Cc3ccccc3)C2)N2CCN=C12

## Result
-0.47% (inactive)
-2.69% (inactive)
0.4% (inactive)

Kindly give each listed record's inhibition of SARS-CoV-2 cytopathic effect.
1. O=C(/C=C/C=C/c1ccc2c(c1)OCO2)N1CCCCC1
2. O=c1[nH]c2ccccc2n1C1CCN(CCCC(c2ccc(F)cc2)c2ccc(F)cc2)CC1 [pimozide]
3. Cc1ccc(-n2nc(C(C)(C)C)cc2NC(=O)Nc2ccc(OCCN3CCOCC3)c3ccccc23)cc1

## Result
-3.68% (inactive)
0.1% (inactive)
-0.73% (inactive)

Kindly give each listed record's inhibition of SARS-CoV-2 cytopathic effect.
1. CCC[C@H](Nc1nc(-c2ccc(NC(=O)NCC)c(OC)c2)ncc1C)c1cccnc1
2. COc1ccc2c(c1)C=C1Cn3c-2c(C2CCCCC2)c2ccc(cc23)C(=O)NS(=O)(=O)N(C)CCOCCN(C)C1=O
3. CCC/N=C1\S/C(=C\c2ccc(OC[C@H](O)CO)c(Cl)c2)C(=O)N1c1ccccc1C
4. CCOc1nc2cccc(C(=O)O)c2n1Cc1ccc(-c2ccccc2-c2nnn[nH]2)cc1
5. N[C@@H](C(=O)O)[C@@H](OCc1ccccc1)C(=O)O.N[C@H](C(=O)O)[C@H](OCc1ccccc1)C(=O)O

## Result
["-1.33% (inactive)", "0.59% (inactive)", "-2.77% (inactive)", "-3.25% (inactive)", "-0.27% (inactive)"]

Kindly give each listed record's inhibition of SARS-CoV-2 cytopathic effect.
1. CCCN(CCc1cccs1)[C@H]1CCc2c(O)cccc2C1
2. Cc1cccc(NC(=O)N[C@@H]2N=C(c3ccccc3)c3ccccc3N(C)C2=O)c1
3. CNC(=O)[C@@H](c1ccccc1)N1CCc2cc(OC)c(OC)cc2[C@@H]1CCc1ccc(C(F)(F)F)cc1
4. Oc1cc(O)c(Cl)cn1
5. CC(=O)[C@@]12O[C@](C)(c3ccccc3)O[C@@H]1C[C@H]1[C@@H]3CCC4=CC(=O)CC[C@]4(C)[C@H]3CC[C@@]12C [algestone-acetophenide]
6. Oc1ccc2c3c1O[C@H]1c4[nH]c5c(c4C[C@@]4(O)[C@@H](C2)N(CC2CC2)CC[C@]314)C[C@@]1(O)[C@H]2Cc3ccc(O)c4c3[C@@]1(CCN2CC1CC1)[C@H]5O4
7. O=c1[nH]c(=O)n([C@H]2C[C@H](O)[C@@H](CO)O2)cc1/C=C/Br

## Result
1.13% (inactive)
0.28% (inactive)
2.44% (inactive)
-0.13% (inactive)
1.95% (inactive)
2.76% (inactive)
0.44% (inactive)

Kindly give each listed record's inhibition of SARS-CoV-2 cytopathic effect.
1. COCCCC/C(=N\OCCN)c1ccc(C(F)(F)F)cc1
2. Cc1cn([C@@H]2C[C@@H](O)[C@H](CO)O2)c(=O)[nH]c1=O
3. COc1ccc(C[C@H]2NC[C@H](O)[C@H]2OC(C)=O)cc1
4. C=CCN1CC[C@]23c4c5ccc(O)c4O[C@H]2C(=O)CC[C@@]3(O)[C@H]1C5

## Result
1. -1.16% (inactive)
2. -1.15% (inactive)
3. 44.2% (active)
4. 1.15% (inactive)
